Origin of measurements: patent US20230272055A1

system: T1, Recombinant MBP-mutCALR Type 1 fusion protein (human)
T1 construct: custom made at Cepter; also called recombinant mutCALR protein
protocol description: SPR, IgG captured, 1:1 fit, Exp. 1
assay readout: kon (M⁻¹ s⁻¹)
Respond numerically; units are M⁻¹ s⁻¹ and should not be typed.

Any idea what its kon is? The binder is anti-mutCALR antibody clone 9 (antibody, human IgG1, lambda, V domains shown, human IgG1) VH: EVQLVQSGAEVKKPGASVKVSCKVSGYTLTELSMQWVRQAPGKGLEWMGGFDPDDGETMYAEKFQGRLTVTEDTSTDTVYMELRSLTSEDTALYFCATSPGYDFFDYWGQGTLVTVSS VL: SYVLTQPPSVSVAPGQTARIPCGGNNIGSKSVHWYQQKPGQAPVLVVYDDRDRPSGIPERFSGSNSGNTATLTINRVEAGDEADYYCQVWDSSNDLLIFGGGTKLTVLG 3.02e+06

***
// query kon value for entry anti-mutCALR antibody clone 10 (antibody, human IgG1, lambda, V domains shown, human IgG1) VH: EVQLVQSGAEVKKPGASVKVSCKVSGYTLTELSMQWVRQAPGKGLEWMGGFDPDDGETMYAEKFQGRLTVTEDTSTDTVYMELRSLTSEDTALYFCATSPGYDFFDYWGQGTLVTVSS VL: SYELTQPPSVSVAPGQTARIPCGGNNIGSEGVHWYQQKPGQAPVLVVYDDSDRPSGIPERFSGSNSGNTATLTISRVEAGDEADYYCQVWDSSNDLLIFGGGTKLTVLG 2.11e+06

What about this binder? anti-mutCALR antibody clone 25 (antibody, human IgG1, lambda, V domains shown, human IgG1) VH: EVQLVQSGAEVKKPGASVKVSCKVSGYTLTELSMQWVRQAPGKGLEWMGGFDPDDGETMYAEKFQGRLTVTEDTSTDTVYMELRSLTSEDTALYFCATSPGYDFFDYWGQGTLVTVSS VL: SYELTQPPSVAVAPGQTARITCGGNNIGRKAVHWYQQKPGQAPVLVVYDDSDRPSGIPERFSGSNSGNTATLTINRVEAGDEADYYCQVWDSSNDLLIFGGGTKLTVLG 585000
